# Tested on: Staphylococcus aureus
# MEASUREMENT PROTOCOL: Bactericidal activity against methicillin resistant vancomycin-resistant Staphylococcus aureus VRS11a up to 18 hrs by broth microdilution assay
# Format: functional
# CONDITION LABEL: read-out: MBC99.9
MEASURED ENDPOINT: MBC

- ITEM SMILES: "C/C(=N\\NC(=N)N)c1sc(-c2ccc(C#CCC3CCCC3)cc2)nc1C"
  OBSERVED MEASUREMENT: "4 µg/mL"
- ITEM SMILES: "CCCCCC#Cc1ccc(-c2nc(C)c(/C(C)=N/NC(=N)N)s2)cc1"
  OBSERVED MEASUREMENT: "2 µg/mL"
- ITEM SMILES: "C/C(=N\\NC1=NCCN1)c1sc(-c2ccc(C#CC3CCCC3)cc2)nc1C"
  OBSERVED MEASUREMENT: "8 µg/mL"
- ITEM SMILES: "C/C(=N\\NC(=N)N)c1sc(-c2ccc(C#Cc3ccccc3)cc2)nc1C"
  OBSERVED MEASUREMENT: "2 µg/mL"
- ITEM SMILES: "C/C(=N\\NC(=N)N)c1sc(-c2ccc(C#CC3CCCC3)cc2)nc1C"
  OBSERVED MEASUREMENT: "4 µg/mL"
- ITEM SMILES: "C/C(=N\\NC1=NCCN1)c1sc(-c2ccc(C#CC(C)(C)C)cc2)nc1C"
  OBSERVED MEASUREMENT: "4 µg/mL"
- ITEM SMILES: "C/C(=N\\NC(=N)N)c1sc(-c2ccc(C#CC(C)(C)C)cc2)nc1C"
  OBSERVED MEASUREMENT: "8 µg/mL"
- ITEM SMILES: "C/C(=N\\NC(=N)N)c1sc(-c2ccc(C#CC3CCCCC3)cc2)nc1C"
  OBSERVED MEASUREMENT: "2 µg/mL"

For Staphylococcus aureus, give the measured MBC of the entry C/C(=N\NC(=N)N)c1sc(-c2ccc(C#CC3CC3)cc2)nc1C
2 µg/mL

Answer briefly: MBC recorded on Staphylococcus aureus for CCCCCCC#Cc1ccc(-c2nc(C)c(/C(C)=N/NC(=N)N)s2)cc1
2 µg/mL

State the measured MBC (Staphylococcus aureus) of CCCCCC#Cc1ccc(-c2nc(C)c(/C(C)=N/NC3=NCCN3)s2)cc1
16 µg/mL

* * *

# Test system: Staphylococcus aureus
# MEASUREMENT PROTOCOL: Antibacterial activity against vancomycin-resistant Staphylococcus aureus VRS10 after 20 hrs by broth microdilution assay
# Assay type: functional
# CONDITION LABEL: VRS10, 20 h
MEASURED ENDPOINT: MIC
Provide the measurement as a number trailed by its unit.

- ITEM SMILES: "C/C(=N\\NC(=N)N)c1sc(-c2ccc(C#CC(C)(C)C)cc2)nc1C"
  SYSTEM NAME: "Staphylococcus aureus"
  MEASURED ENDPOINT: "MIC"
  OBSERVED MEASUREMENT: "4 µg/mL"
- ITEM SMILES: "C/C(=N\\NC(=N)N)c1sc(-c2ccc(C#CC3CC3)cc2)nc1C"
  SYSTEM NAME: "Staphylococcus aureus"
  MEASURED ENDPOINT: "MIC"
  OBSERVED MEASUREMENT: "2 µg/mL"
- ITEM SMILES: "C/C(=N\\NC(=N)N)c1sc(-c2ccc(C#CC3CCCC3)cc2)nc1C"
  SYSTEM NAME: "Staphylococcus aureus"
  MEASURED ENDPOINT: "MIC"
  OBSERVED MEASUREMENT: "2 µg/mL"

Report measured MIC; entry is CCCC#Cc1ccc(-c2nc(C)c(/C(C)=N/NC(=N)N)s2)cc1
1 µg/mL

Annotate the compound CCCCCC#Cc1ccc(-c2nc(C)c(/C(C)=N/NC3=NCCN3)s2)cc1 with its measured MIC.
8 µg/mL

Read the entry C/C(=N\NC(=N)N)c1sc(-c2ccc(C#Cc3ccccc3)cc2)nc1C and write its reported MIC.
1 µg/mL

Return MIC for the following compound: CCCCCC#Cc1ccc(-c2nc(C)c(/C(C)=N/NC(=N)N)s2)cc1
2 µg/mL

Consider the compound C/C(=N\NC(=N)N)c1sc(-c2ccc(C#CCC3CCCC3)cc2)nc1C . State its measured MIC.
2 µg/mL

Using the record for C/C(=N\NC1=NCCN1)c1sc(-c2ccc(C#CC(C)(C)C)cc2)nc1C , state its measured MIC.
4 µg/mL

* * *

# Tested on: Staphylococcus aureus
# MEASUREMENT PROTOCOL: Antibacterial activity against vancomycin-resistant Staphylococcus aureus VRS11a after 20 hrs by broth microdilution assay
# Format: functional
MEASURED ENDPOINT: MIC

Use these answered entries as a reference point.
- ITEM SMILES: "C/C(=N\\NC(=N)N)c1sc(-c2ccc(C#CC3CCCCC3)cc2)nc1C"
  MEASURED ENDPOINT: "MIC"
  OBSERVED MEASUREMENT: "1 µg/mL"
- ITEM SMILES: "CCCC#Cc1ccc(-c2nc(C)c(/C(C)=N/NC(=N)N)s2)cc1"
  MEASURED ENDPOINT: "MIC"
  OBSERVED MEASUREMENT: "≤ 0.5 µg/mL"
- ITEM SMILES: "C/C(=N\\NC(=N)N)c1sc(-c2ccc(C#Cc3ccccc3)cc2)nc1C"
  MEASURED ENDPOINT: "MIC"
  OBSERVED MEASUREMENT: "1 µg/mL"

Please list MIC recorded for the compound CCCCCCC#Cc1ccc(-c2nc(C)c(/C(C)=N/NC(=N)N)s2)cc1
0.5 µg/mL

Look up and state reported MIC for C/C(=N\NC(=N)N)c1sc(-c2ccc(C#CC3CC3)cc2)nc1C
2 µg/mL

Please give the documented MIC of C/C(=N\NC(=N)N)c1sc(-c2ccc(C#CCC3CCCC3)cc2)nc1C
4 µg/mL

Provide measured MIC value, entry: C/C(=N\NC(=N)N)c1sc(-c2ccc(C#CC3CCCC3)cc2)nc1C
1 µg/mL

State its MIC: CCCCCC#Cc1ccc(-c2nc(C)c(/C(C)=N/NC3=NCCN3)s2)cc1
8 µg/mL

Give the reported value of MIC for this record: C/C(=N\NC(=N)N)c1sc(-c2ccc(C#CC(C)(C)C)cc2)nc1C
2 µg/mL

Name the recorded MIC of the item CCCCCC#Cc1ccc(-c2nc(C)c(/C(C)=N/NC(=N)N)s2)cc1 in your answer.
1 µg/mL

Let me know recorded MIC for C/C(=N\NC1=NCCN1)c1sc(-c2ccc(C#CC(C)(C)C)cc2)nc1C , thanks.
4 µg/mL

Note down MIC recorded for C/C(=N\NC1=NCCN1)c1sc(-c2ccc(C#CC3CCCC3)cc2)nc1C
8 µg/mL

* * *

Here, each record is paired with measured Papp data.
# MEASUREMENT PROTOCOL: Apparent permeability from apical to basolateral side in human Caco2 cells at 10 uM after 60 mins by LC-MS/MS analysis
# Format: ADME, cell-based
# CONDITION LABEL: caco-2, 1 h
Your answer should be a plain number; it is taken to be in ×10⁻⁶ cm/s.

- COMPOUND: "C/C(=N\\NC(=N)N)c1sc(-c2ccc(C#CC3CC3)cc2)nc1C"
  OBSERVED MEASUREMENT: 0.05

Attention now shifts to the item below.
Read off the recorded Papp for CNC(=C[N+](=O)[O-])NCCSCc1ccc(CN(C)C)o1 [RANITIDINE]
0.27

* * *

# SYSTEM NAME: Ditrans,polycis-undecaprenyl-diphosphate synthase ((2E,6E)-farnesyl-diphosphate specific) (Escherichia coli (strain K12), UniProt P60472)
# Sequence (P60472 whole entry): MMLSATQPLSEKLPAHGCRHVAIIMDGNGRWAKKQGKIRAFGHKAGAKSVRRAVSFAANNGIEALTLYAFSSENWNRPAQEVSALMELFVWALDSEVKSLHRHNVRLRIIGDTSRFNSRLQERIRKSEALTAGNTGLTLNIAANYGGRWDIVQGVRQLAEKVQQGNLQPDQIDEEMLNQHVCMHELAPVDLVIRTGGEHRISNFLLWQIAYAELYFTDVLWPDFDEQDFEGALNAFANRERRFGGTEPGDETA
# MEASUREMENT PROTOCOL: Inhibition of Escherichia coli UPPS using IPP and FPP as substrate preincubated for 30 mins followed by substrate addition measured after 20 mins by malachite green phosphate assay
MEASURED ENDPOINT: IC50
// unit must come after the numeric part

Give recorded IC50. C/C(=N\NC(=N)N)c1sc(-c2ccc(C#CC3CC3)cc2)nc1C
38 µM

* * *

The following compounds are listed with their measured MBC values.
# Tested on: Staphylococcus aureus
# MEASUREMENT PROTOCOL: Bactericidal activity against methicillin resistant Staphylococcus aureus NRS123 (USA400) up to 18 hrs by broth microdilution assay
# Format: functional
# CONDITION LABEL: read-out: MBC99.9
State the answer as a number, implicitly in µg/mL.

Reference set (3 entries):
- ITEM SMILES: "CCCCCCC#Cc1ccc(-c2nc(C)c(/C(C)=N/NC(=N)N)s2)cc1"
  MBC (µg/mL): 4
- ITEM SMILES: "CCCCCC#Cc1ccc(-c2nc(C)c(/C(C)=N/NC(=N)N)s2)cc1"
  MBC (µg/mL): 2
- ITEM SMILES: "C/C(=N\\NC(=N)N)c1sc(-c2ccc(C#Cc3ccccc3)cc2)nc1C"
  MBC (µg/mL): 4

Fill in reported MBC for this entry: CCCCCC#Cc1ccc(-c2nc(C)c(/C(C)=N/NC3=NCCN3)s2)cc1
32

Tell me its MBC given C/C(=N\NC(=N)N)c1sc(-c2ccc(C#CCC3CCCC3)cc2)nc1C as the entry.
2

Annotate the compound C/C(=N\NC(=N)N)c1sc(-c2ccc(C#CC3CCCCC3)cc2)nc1C with its measured MBC.
2

Query MBC for C/C(=N\NC(=N)N)c1sc(-c2ccc(C#CC(C)(C)C)cc2)nc1C
16

Given the compound C/C(=N\NC(=N)N)c1sc(-c2ccc(C#CC3CCCC3)cc2)nc1C , write its reported MBC.
2
